Test system: rodent lifetime carcinogenesis bioassay, tumor incidence TD50
experimentDescription: carcinogenic potency in animals, long-term in vivo studies, CPDB compilation (AID 1745844)
experimentalSetup: mouse; strain B6C3F1; females; by gavage; site: all sites; lesion: lymphoma, histiocytic type; dosed 104 weeks; study length 104 weeks
assayMetric: TD50 (mg/kg/day)
# output: bare number, implied unit mg/kg/day

Recorded TD50 for "Clc1cc2c(cc1Cl)Oc1cc(Cl)c(Cl)cc1O2" , please?
0.000705

----------
Test system: rodent lifetime carcinogenesis bioassay, tumor incidence TD50
experimentDescription: carcinogenic potency in animals, long-term in vivo studies, CPDB compilation (AID 1745844)
experimentalSetup: rat; strain Fischer 344; males; in drinking water; site: skin; lesion: basal-cell carcinoma; dosed 97 weeks; study length 97 weeks
assayMetric: TD50 (mg/kg/day)
Just the number please, in mg/kg/day, no unit attached.

So what's the measured TD50 for this one? "COc1cc(-c2ccc(N=Nc3c(S(=O)(=O)O)cc4cc(S(=O)(=O)O)cc(N)c4c3O)c(OC)c2)ccc1N=Nc1c(S(=O)(=O)O)cc2cc(S(=O)(=O)O)cc(N)c2c1O"
101

----------
Tested on: rodent lifetime carcinogenesis bioassay, tumor incidence TD50
experimentDescription: carcinogenic potency in animals, long-term in vivo studies, CPDB compilation (AID 1745844)
experimentalSetup: mouse; strain B6C3F1; males; by gavage; site: stomach; lesion: squamous-cell carcinoma; dosed 103 weeks; study length 104 weeks
assayMetric: TD50

What TD50 appears in the records for this compound with rodent lifetime carcinogenesis bioassay, tumor incidence TD50? c1cc(OCC2CO2)cc(OCC2CO2)c1 (stereo unspecified)
55.5 mg/kg/day

----------
Tested on: rodent lifetime carcinogenesis bioassay, tumor incidence TD50
experimentDescription: carcinogenic potency in animals, long-term in vivo studies, CPDB compilation (AID 1745844)
experimentalSetup: rat; strain Fischer 344; females; in drinking water; site: brain; lesion: astrocytoma; dosed 107 weeks; study length 107 weeks
assayMetric: TD50

Please look up its TD50: "C=CC(N)=O"
71.8 mg/kg/day

----------
System: rodent lifetime carcinogenesis bioassay, tumor incidence TD50
experimentDescription: carcinogenic potency in animals, long-term in vivo studies, CPDB compilation (AID 1745844)
experimentalSetup: rat; strain Sprague-Dawley; females; inhaled; site: liver; lesion: angioma; dosed 25 weeks; study length 127 weeks
assayMetric: TD50

Suppose we examine the compound "C=CCl" ; what TD50 value has been reported?
913 mg/kg/day

----------
Tested on: rodent lifetime carcinogenesis bioassay, tumor incidence TD50
experimentDescription: carcinogenic potency in animals, long-term in vivo studies, CPDB compilation (AID 1745844)
experimentalSetup: mouse; strain B6C3F1; males; by gavage; site: forestomach; lesion: squamous-cell carcinoma + squamous-cell papilloma; dosed 103 weeks; study length 105 weeks
assayMetric: TD50

Using the record for "C=C(C)CCl" , report its TD50.
73.5 mg/kg/day

----------
Test system: rodent lifetime carcinogenesis bioassay, tumor incidence TD50
experimentDescription: carcinogenic potency in animals, long-term in vivo studies, CPDB compilation (AID 1745844)
experimentalSetup: mouse; strain B6C3F1; females; in drinking water; site: any site (literature study); lesion: several types; types named in the paper; dosed 104 weeks; study length 105 weeks
Active and inactive are the calls of the source. How the calls were made is not given here.
assayMetric: TD50

Notebook: pull reported TD50 for rodent lifetime carcinogenesis bioassay, tumor incidence TD50, entry "O"
806 mg/kg/day (inactive)

----------
System: rodent lifetime carcinogenesis bioassay, tumor incidence TD50
experimentDescription: carcinogenic potency in animals, long-term in vivo studies, CPDB compilation (AID 1745844)
experimentalSetup: rat; strain Fischer 344; males; by gavage; site: nasal cavity; lesion: adenocarcinoma, NOS; dosed 94 weeks; study length 104 weeks
assayMetric: TD50 (mg/kg/day)
Record the value in mg/kg/day, omitting the unit from your answer.

Reported TD50, molecule "CC(C)=CCl" : ____
70.1

----------
Tested on: rodent lifetime carcinogenesis bioassay, tumor incidence TD50
experimentDescription: carcinogenic potency in animals, long-term in vivo studies, CPDB compilation (AID 1745844)
experimentalSetup: rat; strain Osborne-Mendel; males; in feed; site: pancreatic islets; lesion: islet-cell carcinoma; dosed 80 weeks; study length 110 weeks
assayMetric: TD50

Reported TD50, molecule "ClC1=C(Cl)[C@]2(Cl)[C@@H]3[C@H]4C[C@H]([C@@H]5O[C@H]45)[C@@H]3[C@@]1(Cl)C2(Cl)Cl" : ____
1.75 mg/kg/day

----------
Test system: rodent lifetime carcinogenesis bioassay, tumor incidence TD50
experimentDescription: carcinogenic potency in animals, long-term in vivo studies, CPDB compilation (AID 1745844)
experimentalSetup: mouse; strain B6C3F1; males; inhaled; site: lymphoreticular system; lesion: histiocytic sarcoma; dosed 80 weeks; study length 96 weeks
assayMetric: TD50

Given the compound "C=CC(=C)C" , what is its reported TD50?
3450 mg/kg/day

----------
Tested on: rodent lifetime carcinogenesis bioassay, tumor incidence TD50
experimentDescription: carcinogenic potency in animals, long-term in vivo studies, CPDB compilation (AID 1745844)
experimentalSetup: rat; strain Fischer 344; females; by gavage; site: nervous system; lesion: one or several types; types not named; dosed 30 weeks; study length 104 weeks
assayMetric: TD50 (mg/kg/day)
State just the number; it will be interpreted in mg/kg/day.

Recall the recorded TD50 for "CC(=O)CN(N=O)C(=O)NCCCl" with rodent lifetime carcinogenesis bioassay, tumor incidence TD50 and state it.
4.49

I'm curious: which TD50 was measured for "CCN(N=O)C(=O)NCC(C)=O" tested on rodent lifetime carcinogenesis bioassay, tumor incidence TD50?
1.66

----------
System: rodent lifetime carcinogenesis bioassay, tumor incidence TD50
experimentDescription: carcinogenic potency in animals, long-term in vivo studies, CPDB compilation (AID 1745844)
experimentalSetup: mouse; strain B6C3F1; females; inhaled; site: all sites + liver; lesion: histiocytic sarcoma + hemangioma + hemangiosarcoma + hepatocellular adenoma + hepatocellular carcinoma; dosed 95 weeks; study length 95 weeks
assayMetric: TD50 (mg/kg/day)
Kindly provide the numeric value in mg/kg/day only, without the unit symbol.

# lookup: TD50 of "FC(F)=C(F)F"
54

----------
Tested on: rodent lifetime carcinogenesis bioassay, tumor incidence TD50
experimentDescription: carcinogenic potency in animals, long-term in vivo studies, CPDB compilation (AID 1745844)
experimentalSetup: rat; strain F344/DuCrj; females; in feed; site: Zymbal's gland; lesion: squamous-cell carcinoma; dosed 67 weeks; study length 67 weeks
assayMetric: TD50

Consider the compound shown here: "Cc1cccn2c1nc1ccc(N)nc12" What is its recorded TD50?
12.7 mg/kg/day

----------
System: rodent lifetime carcinogenesis bioassay, tumor incidence TD50
experimentDescription: carcinogenic potency in animals, long-term in vivo studies, CPDB compilation (AID 1745844)
experimentalSetup: rat; strain Fischer 344; males; inhaled; site: liver; lesion: hepatocellular adenoma + hepatoblastoma + hepatocellular carcinoma; dosed 104 weeks; study length 105 weeks
assayMetric: TD50 (mg/kg/day)
Express the result in mg/kg/day but write the number alone.

Which TD50 is reported for this molecule? "O=S(=O)([O-])[O-].[Ni+2]"
2.08

----------
System: rodent lifetime carcinogenesis bioassay, tumor incidence TD50
experimentDescription: carcinogenic potency in animals, long-term in vivo studies, CPDB compilation (AID 1745844)
experimentalSetup: rat; strain Fischer 344; males; by gavage; site: adrenal medulla; lesion: pheochromocytoma, malignant; dosed 104 weeks; study length 104 weeks
assayMetric: TD50 (mg/kg/day)
The answer is to be given in mg/kg/day; state only the numeric part.

Consider the compound shown here: "C/C=C/C=C/C=O" What is its recorded TD50?
415

----------
Test system: rodent lifetime carcinogenesis bioassay, tumor incidence TD50
experimentDescription: carcinogenic potency in animals, long-term in vivo studies, CPDB compilation (AID 1745844)
experimentalSetup: rat; strain Alpk:APfSD; females; by gavage; site: liver; lesion: cholangioma; dosed 88 weeks; study length 107 weeks
assayMetric: TD50
Show the value, then the unit it is measured in.

Query: TD50; subject: "CC/C(=C(\c1ccccc1)c1ccc(OCCN(C)C)cc1)c1ccccc1"
2260 mg/kg/day

----------
Test system: rodent lifetime carcinogenesis bioassay, tumor incidence TD50
experimentDescription: carcinogenic potency in animals, long-term in vivo studies, CPDB compilation (AID 1745844)
experimentalSetup: rat; strain Wistar; males; inhaled; site: any site (literature study); lesion: several types; types named in the paper; dosed 52 weeks; study length 78 weeks
assayMetric: TD50

Quick one: TD50 for "C=CCl" ?
5.44 mg/kg/day

----------
Tested on: rodent lifetime carcinogenesis bioassay, tumor incidence TD50
experimentDescription: carcinogenic potency in animals, long-term in vivo studies, CPDB compilation (AID 1745844)
experimentalSetup: rat; strain Charles River CD (Sprague-Dawley); males; in feed; site: liver; lesion: carcinoma; dosed 43 weeks; study length 69 weeks
assayMetric: TD50

// fetch rodent lifetime carcinogenesis bioassay, tumor incidence TD50 TD50 for C=CC(O)c1ccc2c(c1)OCO2 (stereo unspecified)
16.7 mg/kg/day

----------
System: rodent lifetime carcinogenesis bioassay, tumor incidence TD50
experimentDescription: carcinogenic potency in animals, long-term in vivo studies, CPDB compilation (AID 1745844)
experimentalSetup: mouse; strain B6C3F1; males; in feed; site: liver; lesion: hepatoblastoma; dosed 101 weeks; study length 103 weeks
assayMetric: TD50 (mg/kg/day)
// return numeric value only (unit: mg/kg/day, not printed)

Which measured TD50 value corresponds to "CCC1(c2ccccc2)C(=O)NCNC1=O" ?
52.5

Values compiled from PubChem BioAssay AID1745844.
